Measured On: THERMINATOR™ DNA polymerase (Thermococcus sp., UniProt Q56366, A485L/D141A/E143A)
Construct: purchased New England Biolabs
Sequence (Q56366 whole entry D141A/E143A/A485L): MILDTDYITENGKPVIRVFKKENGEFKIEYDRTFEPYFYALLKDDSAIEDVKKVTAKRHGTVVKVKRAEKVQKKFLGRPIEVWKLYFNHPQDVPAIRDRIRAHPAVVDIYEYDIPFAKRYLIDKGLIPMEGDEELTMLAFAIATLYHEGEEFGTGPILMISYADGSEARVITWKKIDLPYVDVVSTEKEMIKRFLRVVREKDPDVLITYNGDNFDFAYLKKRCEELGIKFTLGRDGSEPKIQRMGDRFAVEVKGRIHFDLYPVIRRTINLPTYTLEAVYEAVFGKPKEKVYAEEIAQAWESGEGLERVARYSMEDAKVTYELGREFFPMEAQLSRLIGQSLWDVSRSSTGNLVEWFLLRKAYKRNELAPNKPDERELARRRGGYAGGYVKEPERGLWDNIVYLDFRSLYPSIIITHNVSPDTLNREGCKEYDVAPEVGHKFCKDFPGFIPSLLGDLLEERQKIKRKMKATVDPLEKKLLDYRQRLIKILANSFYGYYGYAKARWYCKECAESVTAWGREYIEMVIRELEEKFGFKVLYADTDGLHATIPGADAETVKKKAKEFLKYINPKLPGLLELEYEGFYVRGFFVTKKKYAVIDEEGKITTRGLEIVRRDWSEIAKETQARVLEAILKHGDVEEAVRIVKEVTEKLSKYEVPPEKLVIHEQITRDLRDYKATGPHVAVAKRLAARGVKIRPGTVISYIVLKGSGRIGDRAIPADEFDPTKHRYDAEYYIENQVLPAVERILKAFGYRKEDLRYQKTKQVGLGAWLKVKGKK
Protocol: biochemical
Parameters: species or system Thermococcus species 9° N-7
Condition: IC50 for incorporation, concentration at which the compound incorporates on half the primer-template complexes; complement template base
Would you mind telling me the reported pIC50 of each entry?
Give bare numbers, as −log10 of the molar value.

Consider the worked cases shown below.
CC(C)C(OCc1cn([C@H]2C[C@H](O)[C@@H](COP(=O)(O)OP(=O)(O)OP(=O)(O)O)O2)c2nc(N)[nH]c(=O)c12)c1ccccc1[N+](=O)[O-] (single isomer, unassigned) [5p143-ds1]    8.92
O=c1[nH]c(=O)n([C@H]2C[C@H](O)[C@@H](COP(=O)(O)OP(=O)(O)OP(=O)(O)O)O2)cc1COCc1ccccc1-c1ccccc1    8.85
Nc1nc(OCc2ccccc2[N+](=O)[O-])c2ncn([C@H]3C[C@H](O)[C@@H](COP(=O)(O)OP(=O)(O)OP(=O)(O)O)O3)c2n1    8.40
CC(C)(C)c1ccccc1COCc1cn([C@H]2C[C@H](O)[C@@H](COP(=O)(O)OP(=O)(O)OP(=O)(O)O)O2)c(=O)[nH]c1=O    9.15
Cc1cccc(C)c1COCc1cn([C@H]2C[C@H](O)[C@@H](COP(=O)(O)OP(=O)(O)OP(=O)(O)O)O2)c(=O)[nH]c1=O    8.85

Read the next record carefully.
Lab note: measured pIC50 of CC(C)(C)C(OCc1cn([C@H]2C[C@H](O)[C@@H](COP(=O)(O)OP(=O)(O)OP(=O)(O)O)O2)c(=O)[nH]c1=O)c1ccccc1[N+](=O)[O-] (single isomer, unassigned) was 8.52

###

Protocol: UV-cleavage of incorporated nucleotide analogs with 365 nm light
Condition: 365 nm UV light, 50 mM NaN3; time at which half the incorporated analog is cleaved
Could you please report measured DT50 for the items listed next?

Before answering, review these 3 worked examples.
COc1ccc(C(OCc2cn([C@H]3C[C@H](O)[C@@H](COP(=O)(O)OP(=O)(O)OP(=O)(O)O)O3)c3ncnc(N)c23)C(C)C)c([N+](=O)[O-])c1 (single isomer, unassigned) [6p087-ds1]    8.8 ± 0.6 s
CC(C)C(OCc1cn([C@H]2C[C@H](O)[C@@H](COP(=O)(O)OP(=O)(O)OP(=O)(O)O)O2)c2ncnc(N)c12)c1c([N+](=O)[O-])cccc1[N+](=O)[O-] (single isomer, unassigned) [6p057-ds2]    4.8 ± 0.5 s
CC(C)C(OCc1cn([C@H]2C[C@H](O)[C@@H](COP(=O)(O)OP(=O)(O)OP(=O)(O)O)O2)c2ncnc(N)c12)c1c([N+](=O)[O-])cccc1[N+](=O)[O-] (single isomer, unassigned) [6p057-ds1]    7.3 ± 1.2 s

DT50 measured on CC(C)C(OCc1cn([C@H]2C[C@H](O)[C@@H](COP(=O)(O)OP(=O)(O)OP(=O)(O)O)O2)c2ncnc(N)c12)c1ccccc1[N+](=O)[O-] (single isomer, unassigned) [5p098-ds1] = 7.5 ± 0.8 s

###

Measured On: THERMINATOR™ DNA polymerase (Thermococcus sp., UniProt Q56366, A485L/D141A/E143A)
Construct: purchased New England Biolabs
Protocol: termination assay, weighted sum analysis on homopolymer repeat template
Format: biochemical, Thermococcus species 9° N-7
Condition: 1x IC50; 1.0 = complete termination after a single incorporation
Readout Label: Average Weighted Sum ± SD
Numbers only.

Solved entries (count: 2):
O=c1[nH]c(=O)n([C@H]2C[C@H](O)[C@@H](COP(=O)(O)OP(=O)(O)OP(=O)(O)O)O2)cc1COCc1ccccc1-c1ccccc1    0.46
CC(C)C(OCc1cn([C@H]2C[C@H](O)[C@@H](COP(=O)(O)OP(=O)(O)OP(=O)(O)O)O2)c(=O)[nH]c1=O)c1ccccc1[N+](=O)[O-] (mixture of isomers)    0.59

Next molecule, please.
# Average Weighted Sum ± SD of `CC(C)c1ccccc1COCc1cn([C@H]2C[C@H](O)[C@@H](COP(=O)(O)OP(=O)(O)OP(=O)(O)O)O2)c(=O)[nH]c1=O` = 0.53
